System: SK-ES-1
Assay: relative viability vs DMSO control (72 h) (fraction); higher = more viable cells
Settings: 0.01372 µM
Below: a set of entries, each annotated with reported relative viability.
QUANTITY: relative viability

{"COMPOUND": "N#CC[C@H](C1CCCC1)n1cc(-c2ncnc3[nH]ccc23)cn1 [Ruxolitinib]", "QUANTITY": "relative viability", "RESULT": 0.942}
{"COMPOUND": "CC(C)N1CCN(Cc2cnc(-c3cc(-c4cccc5[nH]ccc45)cc4[nH]ncc34)o2)CC1 [Nemiralisib]", "QUANTITY": "relative viability", "RESULT": 0.985}
{"COMPOUND": "COc1cc2c(Oc3ccc4[nH]c(C)cc4c3F)ncnc2cc1OCCCN1CCCC1 [Cediranib]", "QUANTITY": "relative viability", "RESULT": 1.06}
{"COMPOUND": "C=CC(=O)Nc1cccc(Oc2nc(Nc3ccc(N4CCN(C)CC4)cc3)nc3ccsc23)c1 [Olmutinib]", "QUANTITY": "relative viability", "RESULT": 1.03}

Numbers sourced from the supplement of paper PMC10883282.
